Tested on: MOLM-13
Assay: Cell viability (CELL TITER-GLO), Compound 1 IC50
Format: cell-based
Settings: Homo sapiens; MOLM-13 (monocytic, FAB M5a)
MEASURED PARAMETER: IC50 (nM)
// return numeric value only (unit: nM, not printed)

Hey, MOLM-13 data for O=C1CCC(N2Cc3cc(CNC(=O)C(F)(F)c4ccc(Cl)cc4)ccc3C2=O)C(=O)N1 (stereo not shown) : IC50 came out at 76.2

* * *

Test system: KG-1
Experiment: Cell viability (CELL TITER-GLO), Compound 1 IC50
Type: cell-based
Conditions: Homo sapiens; KG-1 (myeloblast, FAB M0)
MEASURED PARAMETER: pIC50
In textbook form, pIC50 equals minus log to base ten of the concentration in mol/L.

The measured pIC50 associated with O=C1CCC(N2Cc3cc(CNC(=O)C(F)(F)c4ccc(Cl)cc4)ccc3C2=O)C(=O)N1 (stereo not shown) reads 8.05
